Tested on: MS2 coat protein
measurement-protocol: apparent KD of MS2 coat protein, switch OFF state (with FMN for OFF switches, without FMN for ON switches); designed switch direction (-1 OFF switch, 1 ON switch): -1; higher = weaker reporter binding
assay-context: FMN input: 0 or 200 uM; Eterna round: R93 (includes R88 designs)
# thresholds on apparent KD of MS2 coat protein define classes: 1 (below 50 nM), 2 (50 nM to below 80 nM), 3 (80 nM or more)

1) AGUUAGCGAGGAUAUACAUGAGGAUCACCCAUGUGAGAGAAAAAAGUGAGAAAUAAAAGUAGAAGGCGCUAACA [Mat - Exclusion 3 - Eli mod - D69]	3
2) AACAUGUGAGGAUAUUAAAGAAAAGAAAAGAAAGAAAAGAAUAAGAAGGCACAUGAGGAUCACCCAUGUAAGAA [EteRNA is fun!]	1
3) AAAACGGCAGGAUAUACGAUUUGGAACUAGACCGAGGAACCACAUGAGGAUCACCCAUGUAGAAGGGCCAAAAA [Ex2 Malc#16]	1
4) GAAAAACAUGAGGAUCACCCAUGUAAGGAUAUGCUGAAAAACACGGAAAAAACGUGCAGCAGAAGGUACAAAAG [Mat - Exclusion 1 - Eli mod - D91]	3
5) UGCUAGUCAGGAUAUACGAACAUGUCAAAAGACGUGAAGGGACAUGAGGAUCACCCAUGUAGAAGGGACUAGCA [salish99-Ex2-18]	3
6) AGAUGACAAGGAUAUACUAGGGAUGAUAGUAGAGAAGAAGAACAUGAGGAUCACCCAUGUAGAAGGUGUAAGAA [JR_Exc002_Sub1702]	2
7) AAAAAGUGAGGAUAUACAUGAGGAUCACCCAUGUAAAAAAAAAAAAGGGUGGAAGAAAGUAGAAGGCACCAAAA [Ex 3 May 47]	2
8) AAGGGACAUGAGGAUCACCCAUGUCAGGAUAUGAUGCGAAUAAAGAAAGAAUAAAGCAUCAGAAGGGACACCAA [Mat - Exclusion 1 - Eli mod - D64]	1
9) CUCUUGUCAGGAUAUAGAAGAAAAGAAAAGAAAGAAAAGAACUAGAAGGGACAUGAGGAUCACCCAUGUAAGAA [EteRNA is fun!]	2
10) AAAACUGGAGGAUAUACGAACAUGUCGAAAGACGUGAAGGGACAUGAGGAUCACCCAUGUAGAAGGCUAGAAAA [Mat - Exclusion 2 - JL mod - D72]	2
11) GGAUGGGAAGGAUAUACAUGAGGAUCACCCAUGUGAGAGAAAAAAGUGAGAAAGAAAAGUAGAAGGUCUUGUCG [salish99-ex3-85]	3
12) GAAAAGUGAGGAUAUUCGGAUAGGAAAACGAAAACCUAUCCGAAGAAGGCACAUGAGGAUCACCCAUGUAAAAG [Mat - Exaclusion 4 - Eli mod - D36]	2
13) GGAGGGCAAGGAUAUACAUGAGGAUCACCCAUGUGAGAGAAAAAAGUGAGAAAGAAAAGUAGAAGGUGCUUUCG [salish99-ex3-130]	1

====

A collection of sequences and their measured apparent KD of MS2 coat protein
Test system: MS2 coat protein
measurement-protocol: apparent KD of MS2 coat protein; designed switch direction (-1 OFF switch, 1 ON switch): -1; higher = weaker reporter binding
assay-context: input ligand: FMN 200 uM
endpoint-name: apparent KD of MS2 coat protein (nM)

1) AUUACAUGAGGAUAUACAUGAGGAUCACCCAUGUAAAUAGCAGUGGUAGUCAACUCGAGUAGAAGGCGUAACGU [Eternabot (L1) Solution 51] (Eterna round: R97, puzzle: Exclusion 3)	67.8
2) CUUAUGUGAGGAUAUGCCUGGCCGUGAGGCCAAAUUUAUAAGCAGAAGGCACAUGAGGAUCACCCAUGUGCGGG [jl-ex4-4.69 ViennaUCT mod] (Eterna round: R97, puzzle: Exclusion 4)	115
3) UAAUAAAGGGUAGGAUAUGCCGAACAAACACGAGCAGAAGGACCAAAACACUACUUGAGGAUCACCCAAGUGUCCUUCCGUGGU [Mutated MS2 EX1.6] (Eterna round: R96, puzzle: Exclusion NG 1)	52.4
4) GGGCUCGGUCUUCCGGCUGGGUCCACAUGAGGAUCACCCAUGUAGGAUAUCCCGGCUGCCGGCCGGGAGAAGGGCGUGUGUUUC [-39.8, -36.9 kcal, 14% A] (Eterna round: R96, puzzle: Exclusion NG 3)	22.6
5) ACAACCAGAGGAUAUGCGCAUAGAUCAGACUUUGUUUCUGAACAUGAGGAUCACCCAUGUAGAAGGCUGUAACC [Ex2 #79] (Eterna round: R97, puzzle: Exclusion 2)	27.7
6) CAUAGUUACUCAGGAUAUACUACAUGAGGAUCACCCAUGUAAUAAAUGAGAAUUUCGAAUGUAUAGUAGAAGGGAGAAAUCUAC [Ostracism 56 - Jieux - Exclusion NG 2] (Eterna round: R96, puzzle: Exclusion NG 2)	18.3
7) CAGUACUGAGGAUAUACAUGAGGAUCACCCAUGUGUCCCGGCUAGGAAACUAGCAAAAGUAGAAGGCAGUACUG [Fiskers Ex 3 828 mod 2] (Eterna round: R96, puzzle: Exclusion 3)	494
8) CGUGGAUGAAAGGAUAUUGAGGUCUGACUGCCACAAGAAGGUUCAACAUGAGGAUCACCCAUGUCUGAUCCUAA [Xeanorti] (Eterna round: R97, puzzle: Exclusion 6)	47.4
9) CCUCUACAUGAGGAUCACCCAUGUGAGGAUAUCAAAAUCAGGGCGGCUCCCUGACCCAUGAGAAGGUGCAUGGA [EX1 A.5] (Eterna round: R97, puzzle: Exclusion 1)	31
10) GCAGCAUAGUCGGAAACGACAGAACAUGAGGAUCACCCAUGUCAGGAUAUGGUCUGGAUUACAGGCCAGAAGGGACAAAGCUGC [Eli exng3 - 008] (Eterna round: R96, puzzle: Exclusion NG 3)	19.6
11) GUAACAUGCUGGUGAUCAUACAUGAGGAUCACCCAUGUAACAAGCUUUUUGUUCGUCUUAUAAGAUUACUAGUAUGU [Stov1/10-B2] (Eterna round: R97, puzzle: Sensor, turn-off variant 1)	33
12) AAGAAGAAGUAAGGAUAUGAAGAUUUGGUGAUAACAUGAGGAUCACCCAUGUGAAAACAAUAAAAUCAGAAGGUAUAAGAAGAA [AK ExNG2-2] (Eterna round: R96, puzzle: Exclusion NG 2)	57.6
13) AUGGGUCCUCUCGGAGCUACAUGAGGAUCACCCAUGUGUAUUGAGGAUAUCCACUGCUCAGGACUGGAGAAGGCAGUGUACUGU [Ex NG3 #88] (Eterna round: R96, puzzle: Exclusion NG 3)	56.2
14) GACCGGGCAGGAUAUACAAAACCUCGGUGUAUUUUGGACCGACAUGAGGAUCACCCAUGUAGAAGGGCCUAAGG [Eternabot (Original) Solution 4] (Eterna round: R97, puzzle: Exclusion 2)	34.2
15) UACAUGAGGAUCACCCAUGUUUUGUCGUGUAUGGUAUUUAUCUAGGAUAUCAAUGUAUUAAUUUAUGAGAAGGAGAAUAUUAAU [JMF's solution 44] (Eterna round: R96, puzzle: Exclusion NG 3)	42
16) CGUAUGUGAGGAUAUGGUCUCGAUGACAUGAGGAUCACCCAUGUAACAUGGGACUUGUGACUAGAAGGCACUAACG [JR_Ex5_Sub023] (Eterna round: R97, puzzle: Exclusion 5)	29.1
17) AGUCCUGGAGUUAGGAUAUGGCGUAUCGCUGCGCUUCAGAAGGGACUUGAGGAUCACCCAAGUAGCCGUGAGGG [salish99_bmod_ex4_r4_008] (Eterna round: R97, puzzle: Brourd's mod of Exclusion 4)	81.7
18) AAAUUGCUAGAGGAUAUCGGAUAGAAUUUAUUACGAGAAGGUUAGACAUGAGGAUCACCCAUGUUCUGUUGGGA [EX6 #23] (Eterna round: R97, puzzle: Exclusion 6)	70.1

====

Tested on: MS2 coat protein
measurement-protocol: apparent KD of MS2 coat protein; designed switch direction (-1 OFF switch, 1 ON switch): -1; higher = weaker reporter binding
assay-context: input ligand: none
Entries and their measured apparent KD of MS2 coat protein follow.
endpoint-name: apparent KD of MS2 coat protein (nM)

1) AGUACUAACACGACAGUGUUAGUACAAUAAGCUUGUGAAACAUGAGGAUCACCCAUGUCCUCAUAAGCUCGUCUUAU [salish99_TOv2_r3_031] (Eterna round: R96, puzzle: Sensor v3, turn-off variant 2)	17.2
2) ACUUAUUGAGGAUAUACAUUAAAUUACAUGAGGAUCACCCAUGUUCUUCAAUGUAUAUAUGUAGAAGGCAGAAGAU [Mat - Exclusion 5 - JL Mod - D20] (Eterna round: R97, puzzle: Exclusion 5)	14.4
